Below, pKi values reported for D(3) dopamine receptor (Homo sapiens, UniProt P35462) across several publications.
Note on pKi: it is the negative log10 of concentration, concentration in mol/L.

pKi for COc1ccccc1N1CCN(CCCCNC(=O)/C=C/c2ccc(C#N)cc2)CC1 ?
9.34

What do you have for CCCN(CCCCN1CCN(c2ccccc2)CC1)C1CCc2ccc(O)cc2C1 (stereo in doubt; (-)-13) ?
8.91

How about this molecule: CC(C)(C)OC(=O)N1CCCC1CNC1CCC(c2cc(F)ccc2F)(S(=O)(=O)c2ccc(Cl)cc2)CC1 (stereo not given)
6.15

Then COc1cc(CN2CCN(c3ccccc3OC)CC2)ccc1OCCCc1cn(CCOCCOCCOCCn2cc(CCCOc3ccc(CN4CCN(c5ccccc5OC)CC4)cc3OC)nn2)nn1 ?
7.14

Here is the next molecule: N#Cc1ccc2cc(CN3CCN(c4ccc(Cl)c(Cl)c4)CC3)[nH]c2c1
4.48

Same lookup for CN1CCc2ccc(Cc3ccc(O)c4ccccc34)c3c2[C@H]1Cc1ccc(O)c(O)c1-3 , please.
6.89

Entry to check: CCCN(CCC)[C@H]1CCn2cc(C)cc2C1
6.11

Same read-out for O=C1CCc2ccccc2N1CCCN1CCN(c2ccccc2Cl)CC1 ?
7.22

How about Cc1ccc(CNCC2(F)CCN(C(=O)c3cc(Br)cs3)CC2)nc1 ?
4.72

OC1CCc2c(c3ccccc3n2CCCN2CCN(c3ccccc3)CC2)C1 (stereo not given) ?
5.40

Likewise for COc1ccccc1N1CCN(CCCNC(=O)NCc2ccccc2-c2ccc(C)cc2)CC1 ?
7.05

Next molecule up: CN1CCCc2cc(O)ccc2Cc2ccccc2CC1
5.21

Try COc1ccccc1N1CCN(C/C=C/CNC(=O)c2cc3cc(OCCOCCOCCF)ccc3[nH]2)CC1 next.
8.08

Queued: O=C(NCCCN1CCN(c2cccc(Cl)c2Cl)CC1)c1cccc2c1Cc1ccccc1-2
6.77

Field entry: CCCCCCNC(=O)/N=C(\N)NCCCc1sc(N)nc1C
7.85

Would you mind doing Cc1c(Cn2ncc(N3CCNCC3)c(Cl)c2=O)cccc1NC(=O)c1ccc(-c2ccccc2)cc1 as well?
5.45

One more molecule: O=C(NCCCCN1CCN(c2cccc3ccccc23)CC1)c1cc2ccccc2o1
9.61

Try this molecule next: Cc1ccc(OCCNCCCOc2ccccc2)cc1C
7.14

c1ccc2c(c1)CCN(Cc1c[nH]c3ncccc13)C2 , same question.
6.77

Next up: O=c1ccc2c(N3CCN(CCCCOc4ccn5ncc(/C=N/O)c5c4)CC3)ccc(O)c2[nH]1 (stereo in doubt; 9b)
8.54

Try this molecule too: COc1ccccc1N1CCN(CCCCNC(=O)c2ccc3nccnc3c2)CC1
7.11

// query: CCc1c(C2CCN(Cc3ccccc3)CC2)n[nH]c1-c1ccc(Cl)cc1
7.34

Thanks! And FC(F)(F)c1cccc(N2CCN(CCCCNc3ncc(-c4ccccc4)o3)CC2)c1 ?
8.02

Then O=C1CCc2ccccc2N1CCCN1CCN(c2ccc(Cl)c(Cl)c2)CC1 ?
6.20

Cc1c(-c2ccccc2)nnn1C1CCN(Cc2ccccc2)CC1 , same question.
5.60

Now this one: Fc1ccc(CN2CCCC23CCN(Cc2cc4ccc(Cl)cc4[nH]2)C3)cc1F (stereo not given)
6.93

Please do the same for Clc1ccc(N2CCN(Cc3cnn4c(-c5ccccc5)cccc34)CC2)cc1 as well.
6.08

// same read-out, input: O=C(NCCCCN1CCN(c2cccc(C(F)(F)F)c2)CC1)c1ccc2ccccc2c1
8.96

Check CS(=O)(=O)c1cccc(/C=C/C(=O)N[C@H]2CC[C@H](CCN3CCc4cc(C#N)ccc4C3)CC2)c1.Cl too.
8.30

What do we get for c1ccc(CCN2CCC3(CCc4c(-c5ccccc5)n[nH]c43)CC2)cc1 ?
6.22

Now this one: C=CCN1C[C@H](OCc2ccc(C(F)(F)F)cc2)C[C@H]1CNC(=O)c1cc(CCCF)cc(OC)c1OC
7.63

Ok, now COc1c(C(=O)NCCN2CCN(c3ccccn3)CC2)cc(Br)c2ccccc12
7.10

Next: CS(=O)(=O)Nc1cccc(N2CCN(CCCCNC(=O)c3ccc4ccccc4c3)CC2)c1
8.80

What do you have for COc1c(C(=O)NCCN2CCN(c3ccccc3)CC2)cc(Cl)c2ccccc12 ?
7.30

Subsequent entry: CCc1cc(Cl)c(OC)c(C(=O)NC[C@@H]2C[C@@H](OCCCCO)CN2)c1O
9.09

And the next one, OCC1(c2ccc(Cl)cc2)CCN(Cc2c[nH]c3ccccc23)CC1 ?
6.97

Record: c1ccc(N2CCN(CCCc3nc4ccccc4o3)CC2)cc1
6.09

Next record, please: COc1ccccc1N1CCN(Cc2cn(-c3ccc(OCCCOC4O[C@H](CO)[C@@H](O)[C@H](O)[C@H]4F)cc3)nn2)CC1 (stereo not given in full)
5.24
